Measured pIC50, listed per entry.
- target under test: KRAS G12D binding to BRAF (Homo sapiens (Human), UniProt P01116+P62937, G12D)
- Sequence (P01116-2 other isoform, or with tags, fused parts or gaps G12D): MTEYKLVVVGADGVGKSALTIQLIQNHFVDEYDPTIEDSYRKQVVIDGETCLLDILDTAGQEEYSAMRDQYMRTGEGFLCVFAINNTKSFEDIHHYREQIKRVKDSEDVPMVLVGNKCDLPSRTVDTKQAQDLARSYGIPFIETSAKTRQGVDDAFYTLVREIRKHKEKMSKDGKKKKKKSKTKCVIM
- Sequence (P62937 whole entry): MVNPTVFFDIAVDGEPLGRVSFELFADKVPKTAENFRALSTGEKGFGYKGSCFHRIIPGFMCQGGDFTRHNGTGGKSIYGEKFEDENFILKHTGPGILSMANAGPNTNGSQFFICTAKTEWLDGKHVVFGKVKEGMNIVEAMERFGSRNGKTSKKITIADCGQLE
- test description: KRAS-BRAF with CYPA (500 nM) interaction assay (TR-FRET), G12D
pIC50: −log10 of the molar value.

compound	target under test	bound sign	pIC50
CO[C@@H](C)c1ncc(N2CCN(C)CC2)cc1-c1c2c3cc(c(F)cc3n1CC(F)(F)F)-c1cc(O)cc(c1)C[C@H](NC(=O)[C@H](C(C)C)N(C)C(=O)[C@H]1CCN(C(=O)[C@H](F)Cl)C1)C(=O)N1CCC[C@H](N1)C(=O)OCC(C)(C)C2 (atropisomer, axis not shown; (M)) [Example 8]	KRAS G12D binding to BRAF (Homo sapiens (Human), UniProt P01116+P62937, G12D)	=	7.07
CCn1c(-c2cc(N3CCN(CC(F)(F)F)CC3)cnc2[C@H](C)OC)c2c3cc(c(F)cc31)-c1csc(n1)C[C@H](NC(=O)[C@H](C(C)C)N1CC[C@@]3(CCN(C(=O)[C@H](F)Cl)C3)C1=O)C(=O)N1CCC[C@H](N1)C(=O)OCC(C)(C)C2 (atropisomer, axis not shown; (M)) [Example 35]	KRAS G12D binding to BRAF (Homo sapiens (Human), UniProt P01116+P62937, G12D)	=	5.49
CCn1c(-c2cc(N3CCN(CC(F)(F)F)CC3)cnc2[C@H](C)OC)c2c3cc(c(F)cc31)-c1csc(n1)C[C@H](NC(=O)[C@H](C(C)C)N1CCC3(CN(C(=O)[C@H](F)Cl)C3)C1=O)C(=O)N1CCC[C@H](N1)C(=O)OCC(C)(C)C2 (atropisomer, axis not shown; (M)) [Example 37]	KRAS G12D binding to BRAF (Homo sapiens (Human), UniProt P01116+P62937, G12D)	=	6.02
CCn1c(-c2cc(N3CCN(CC(F)(F)F)CC3)cnc2[C@H](C)OC)c2c3cc(c(F)cc31)-c1csc(n1)C[C@H](NC(=O)[C@H](C(C)C)N(C)C(=O)[C@H]1CCN(C(=O)[C@H](F)Cl)C1)C(=O)N1CCC[C@H](N1)C(=O)OCC(C)(C)C2 (atropisomer, axis not shown; (M)) [Example 33]	KRAS G12D binding to BRAF (Homo sapiens (Human), UniProt P01116+P62937, G12D)	<	5.00
CCn1c(-c2cc(N3CCN(C)CC3)cnc2[C@H](C)OC)c2c3cc(c(F)cc31)-c1csc(n1)C[C@H](NC(=O)[C@H](C(C)C)N1CCC[C@]3(CCN(C(=O)[C@@H](F)Cl)C3)C1=O)C(=O)N1CCC[C@H](N1)C(=O)OCC(C)(C)C2 [Example 22]	KRAS G12D binding to BRAF (Homo sapiens (Human), UniProt P01116+P62937, G12D)	<	5.00
CO[C@@H](C)c1ncc(N2CCN(C)CC2)cc1-c1c2c3c(F)c(ccc3n1CC(F)(F)F)-c1csc(n1)C[C@H](NC(=O)[C@H](C(C)C)N1CCCC3(CCN(C(=O)[C@H](F)Cl)CC3)C1=O)C(=O)N1CCC[C@H](N1)C(=O)OCC(C)(C)C2 (atropisomer, axis not shown; (M)) [Example 20]	KRAS G12D binding to BRAF (Homo sapiens (Human), UniProt P01116+P62937, G12D)	=	5.91
CCn1c(-c2cc(N3CCN(CC(F)(F)F)CC3)cnc2[C@H](C)OC)c2c3cc(c(F)cc31)-c1csc(n1)C[C@H](NC(=O)[C@H](C(C)C)N(C)C(=O)C1(F)CCN(C(=O)[C@H](F)Cl)CC1)C(=O)N1CCC[C@H](N1)C(=O)OCC(C)(C)C2 (atropisomer, axis not shown; (M)) [Example 49]	KRAS G12D binding to BRAF (Homo sapiens (Human), UniProt P01116+P62937, G12D)	=	6.35
CO[C@@H](C)c1ncc(N2CCN(C)CC2)cc1-c1c2c3cc(c(F)cc3n1CC(F)(F)F)-c1csc(n1)C[C@H](NC(=O)[C@H](C(C)C)N1CCC3(CN(C(=O)[C@H](F)Cl)C3)C1=O)C(=O)N1CCC[C@H](N1)C(=O)OCC(C)(C)C2 (atropisomer, axis not shown) [Example 25]	KRAS G12D binding to BRAF (Homo sapiens (Human), UniProt P01116+P62937, G12D)	=	5.22
CCn1c(-c2cc(N3CCN(C)CC3)cnc2[C@H](C)OC)c2c3cc(c(F)cc31)-c1csc(n1)C[C@H](NC(=O)[C@@H](COC1CN(C(=O)[C@H](F)Cl)C1)C(C)C)C(=O)N1CCC[C@H](N1)C(=O)OCC(C)(C)C2 (atropisomer, axis not shown; (M)) [Example 40]	KRAS G12D binding to BRAF (Homo sapiens (Human), UniProt P01116+P62937, G12D)	<	5.00
CO[C@@H](C)c1ncc(N2CCN(C)CC2)cc1-c1c2c3cc(c(F)cc3n1CC(F)(F)F)-c1csc(n1)C[C@H](NC(=O)[C@H](C(C)C)N1CCC[C@@]3(CCN(C(=O)[C@H](F)Cl)C3)C1=O)C(=O)N1CCC[C@H](N1)C(=O)OCC(C)(C)C2 (single isomer, unassigned) [Example 16]	KRAS G12D binding to BRAF (Homo sapiens (Human), UniProt P01116+P62937, G12D)	<	5.00
CCn1c(-c2cc(N3CCOCC3)cnc2[C@H](C)OC)c2c3cc(c(F)cc31)-c1csc(n1)C[C@H](NC(=O)[C@H](C(C)C)N1CC[C@@]3(CCN(C(=O)[C@H](F)Cl)C3)C1=O)C(=O)N1CCC[C@H](N1)C(=O)OCC(C)(C)C2 (atropisomer, axis not shown; (M)) [Example 53]	KRAS G12D binding to BRAF (Homo sapiens (Human), UniProt P01116+P62937, G12D)	<	5.00
CCn1c(-c2cccnc2COC)c2c3cc(ccc31)-c1cc(O)cc(c1)C[C@H](NC(=O)[C@H](C(C)C)N(C)C(=O)C1CN(C(=O)[C@H](F)Cl)C1)C(=O)N1CCC[C@H](N1)C(=O)OCC(C)(C)C2 [RM461-A, reference compound]	KRAS G12D binding to BRAF (Homo sapiens (Human), UniProt P01116+P62937, G12D)	<	5.00
CC(C)[C@@H](C(=O)N[C@H]1Cc2cc(O)cc(c2)-c2ccc3c(C(C)(C)C#N)cn(c3c2)CC(C)(C)COC(=O)[C@@H]2CCCN(N2)C1=O)N1CCCC2(CCN(C(=O)CCl)C2)C1=O (some centres unmarked) [RM351, reference compound]	KRAS G12D binding to BRAF (Homo sapiens (Human), UniProt P01116+P62937, G12D)	<	5.00
CO[C@@H](C)c1ncc(N2CCN(C)CC2)cc1-c1c2c3c(F)c(ccc3n1CC(F)(F)F)-c1cc(O)cc(c1)C[C@H](NC(=O)[C@H](C(C)C)N(C)C(=O)[C@H]1CCN(C(=O)[C@H](F)Cl)C1)C(=O)N1CCC[C@H](N1)C(=O)OCC(C)(C)C2 (atropisomer, axis not shown; (M)) [Example 27]	KRAS G12D binding to BRAF (Homo sapiens (Human), UniProt P01116+P62937, G12D)	=	8.15
